Just for reference, paper PMC9749988 is where these values come from.

Target: A1R (Mus musculus)
Construct: To obtain the P1 fraction, cerebral cortex and spinal cord were homogenized in chilled sucrose; from tissue; host or cells: cerebral cortex and spinal cord membranes (P1 fraction) of SOD1-G93A transgenic and WT B6SJL mice
Assay type: binding
Conditions: cortex; WT mice age-matched to pre-symptomatic (4–6 weeks old); mean ± SEM; read-out: DPCPX equilibrium dissociation constant (KD)
Procedure: The radioligand-binding experiments were performed as previously described with membrane fractions (total membranes, P1 fraction). […] Protein quantification was done with DC™ Protein Assay kit (Bio-Rad Laboratories, CA, USA), with bovine serum albumin (BSA) as the reference standard. […] Results are expressed as femtomole per mg of total protein (fmol/mg).
pKd: −log10 of the molar value.

| molecule | pKd |
| --- | --- |
| CCCn1c(=O)c2[nH]c(C3CCCC3)nc2n(CCC)c1=O [DPCPX, [^3H]-8-Cyclopentyl-1,3-dipropylxanyine] | 8.51 |
